TEST SYSTEM: Dual specificity protein kinase CLK4 (Homo sapiens)
METHOD DESCRIPTION: qHTS Assay for Inhibitors of CDC-like Kinase 4 (Kinase-Glo Assay) (AID 1770); note: nearly all actives have a fitted effect of over 65% in size
CONDITION DESCRIPTION: recombinant Clk4, Kinase-Glo ATP depletion luminescence; series mostly up to 66.7 µM
Results filed as inconclusive are left out. The source made the active and inactive calls. Calls come from the whole dose curve; as a rule, active = well fitted inhibition curve with a large enough effect; inconclusive = small, poorly fitted or top-dose-only effect; inactive = flat fitted curve, though single readings scatter.
Your reply should match one of these outcome classes. active, inactive

1) COc1ccc(CNc2cc(-c3cccc(NS(C)(=O)=O)c3)ncn2)c(OC)c1 :: inactive
2) COc1ccccc1CNc1ccnc(-c2cccnc2)n1 :: active
3) CN(C)C(=O)c1ccc(-c2nc(Nc3ccccc3)c3ccccc3n2)cc1 :: active
4) c1cn(-c2ncnc3ccc(-c4ccoc4)cc23)cn1 :: active
5) COc1ccc(Oc2ncc3nc(-c4cccc(C#N)c4)c(=O)n(Cc4cccc(OC)c4)c3n2)cc1 :: inactive

Prompt: # fetch the recorded call for COc1ccc2[nH]cc(CCNc3cc(-c4cccc(C#N)c4)ncn3)c2c1 here
Response: active

Prompt: What about CN(C)c1nc(-c2cccc(C#N)c2)nc2ccccc12 ?
Response: active

Prompt: What about COCCn1c(=O)c(-c2ccccc2)nc2cnc(Oc3cccc(Cl)c3)nc21 ?
Response: inactive

Prompt: What about COCCn1c(=O)c(CCc2ccccc2)nc2cnc(Oc3ccccc3)nc21 ?
Response: inactive

Prompt: What about Cc1cccc(CNc2ncncc2-c2ccccc2C)c1 ?
Response: inactive

Prompt: What about CN(C)C(=O)c1ccc(-c2nc(N3CCOCC3)c3ccccc3n2)cc1 ?
Response: inactive
